- Tested on: UACC-257 melanoma
- experimentDescription: NCI tumour cell line growth inhibition, 48 h
TGI values for the compounds below.
Return type: number; implicit unit µM.

// worked examples, TGI included
CN(C)CC1C(=O)O[C@H]2[C@H]1CC/C(COC(=O)c1cc3ccccc3[nH]1)=C\CC[C@@]1(C)O[C@@H]21 (stereo partly specified) : 3.24
CCOC(=O)/C(=C\c1cccs1)P(=O)(OCC)OCC : 61
OC(CNCC1CCCO1)Cn1c2ccc(Cl)cc2c2cc(Cl)ccc21 (stereo unspecified) : 3.13
CCC[CH2][Sn]([CH2]CCC)([CH2]CCC)[O]C(=O)c1ccc(Cl)cc1Cl : 0.313
COc1ccc(C2=NN(C(N)=S)C(c3ccccc3)C2)cc1 (stereo unspecified) : 99.1

Problem: Which TGI is listed for O=S(=O)(c1cccc2c(Cl)cccc12)N1CCCNCC1 ?
Result: 22.8

Problem: Input COc1cccc2c1C(=O)c1c(O)c3c(c(O)c1C2=O)C[C@@](O)(C(=O)CO)C[C@@H]3O[C@H]1C[C@H](N)[C@@H](O)[C@H](C)O1
Result: 1.82

Problem: Next record, please: COC(=O)C1(C(=O)OC)Cc2ccc(C)cc2C2=C1C(=O)c1ccccc1C2=O
Result: 31.2

Problem: Continue with COc1cccc2c1/c(=C/c1ccc(N(C)C)cc1)c1cc(-c3ccccc3)[n+](C)n12
Result: 0.692

Problem: # iterate: Nc1ccc(CCSSCCc2ccc(N)cc2)cc1
Result: 51.7
